target: Catenin beta-1 (Homo sapiens, UniProt P35222); test: Inhibition of human wild-type beta-catenin (residues 138-686)/C-terminally fluorescein-labeled human APC-R3 (residues 1477-1519) interaction by FP competitive inhibition assay
readout label: IC50
Provide a numeric answer, followed by its unit.

Quick note, IC50 for "COc1c(C[C@@H](C)OC(=O)Oc2ccc(O)cc2)c2c3c(C[C@@H](C)OC(=O)c4ccccc4)c(OC)c(=O)c4c(O)cc(OC)c(c5c(OC)cc(O)c(c1=O)c52)c43" landed at 110 µM

---

Target: Catenin beta-1 (Homo sapiens)
Sequence (P35222 whole entry): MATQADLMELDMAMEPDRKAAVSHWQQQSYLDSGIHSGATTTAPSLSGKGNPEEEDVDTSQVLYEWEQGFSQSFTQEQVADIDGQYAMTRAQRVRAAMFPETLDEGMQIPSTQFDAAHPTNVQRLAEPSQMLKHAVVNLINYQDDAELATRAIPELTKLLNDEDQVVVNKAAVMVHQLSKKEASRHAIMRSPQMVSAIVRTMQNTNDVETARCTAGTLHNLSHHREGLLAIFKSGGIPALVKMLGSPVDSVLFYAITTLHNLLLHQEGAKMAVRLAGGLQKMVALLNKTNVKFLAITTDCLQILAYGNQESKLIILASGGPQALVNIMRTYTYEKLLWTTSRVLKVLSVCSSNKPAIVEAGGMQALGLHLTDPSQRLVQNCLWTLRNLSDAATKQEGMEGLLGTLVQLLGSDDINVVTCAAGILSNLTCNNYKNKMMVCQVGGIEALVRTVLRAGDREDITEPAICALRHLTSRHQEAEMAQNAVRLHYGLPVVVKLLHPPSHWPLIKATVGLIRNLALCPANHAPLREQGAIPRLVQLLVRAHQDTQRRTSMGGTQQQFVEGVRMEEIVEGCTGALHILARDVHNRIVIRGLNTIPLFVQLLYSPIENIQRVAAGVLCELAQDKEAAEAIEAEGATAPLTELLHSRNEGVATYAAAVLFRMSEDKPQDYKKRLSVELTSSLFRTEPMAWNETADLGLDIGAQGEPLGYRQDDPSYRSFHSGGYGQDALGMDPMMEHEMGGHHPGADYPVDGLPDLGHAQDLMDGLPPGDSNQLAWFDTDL
Test: Inhibition of human wild-type beta-catenin (residues 138-686)/C-terminally fluorescein labeled human wild-type Tcf4 (residues 7-51) interaction after […] by FP competitive inhibition assay
readout label: IC50 (µM)
The figure you give is taken to be in µM; do not add the unit.

Quick note, IC50 for "COc1c(C[C@@H](C)OC(=O)Oc2ccc(O)cc2)c2c3c(C[C@@H](C)OC(=O)c4ccccc4)c(OC)c(=O)c4c(O)cc(OC)c(c5c(OC)cc(O)c(c1=O)c52)c43" landed at 77
